Entry source: PubChem BioAssay (NCI)

Tested on: PC-3 prostate
assayText: NCI tumour cell line growth inhibition, 48 h
experimentalReadout: TGI (µM)

molecule: COc1ccc(N=N/C(=N/NC(=O)c2ccccc2)c2ccc(N(CCC#N)CCC#N)cc2C)cc1
comparisonSymbol: >
obsValue: 100
//
molecule: O=c1[nH]c(=O)n(Cc2ccccc2CO)cc1Sc1ccccc1
comparisonSymbol: >
obsValue: 100
//
molecule: CN(C)C(=O)c1cc2cnc(Nc3ccc(-c4csc5c(=O)cc(N6CCOCC6)oc45)cc3)nc2n1C1CCCC1
comparisonSymbol: =
obsValue: 1.47
//
molecule: CCN1c2ccccc2C(Cl)(c2ccc(N(C)C)cc2)c2ccccc21
comparisonSymbol: =
obsValue: 9.88
//
molecule: C=C1C(=O)O[C@H]2[C@H]1CC/C(COC(=O)CSCC(=O)OC/C1=C/CC[C@@]3(C)O[C@H]3[C@H]3OC(=O)C(=C)[C@@H]3CC1)=C\CC[C@@]1(C)O[C@@H]21
comparisonSymbol: =
obsValue: 6.92
//
molecule: CO[C@@H]1CC(=O)C2(CC(=O)O[C@@H]2/C=C(\C)CCC=C(C)C)C[C@@H]1O (stereo partly specified)
comparisonSymbol: =
obsValue: 1.44
